# Tested On: UniProtKB P33535
# Sequence (P33535 whole entry): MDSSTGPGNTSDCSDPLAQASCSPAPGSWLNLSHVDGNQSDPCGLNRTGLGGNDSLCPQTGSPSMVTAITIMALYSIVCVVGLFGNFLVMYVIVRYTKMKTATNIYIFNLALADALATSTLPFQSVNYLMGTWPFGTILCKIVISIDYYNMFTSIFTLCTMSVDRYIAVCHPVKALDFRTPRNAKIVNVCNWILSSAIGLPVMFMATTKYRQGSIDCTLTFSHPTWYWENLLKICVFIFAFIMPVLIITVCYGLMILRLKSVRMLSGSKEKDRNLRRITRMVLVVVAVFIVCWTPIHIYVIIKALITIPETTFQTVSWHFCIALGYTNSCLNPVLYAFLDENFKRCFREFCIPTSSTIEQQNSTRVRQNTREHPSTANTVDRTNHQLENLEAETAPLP
# Assay Info: Binding affinity towards mu Opioid receptor in rat brain membrane using [3H]DAGO as radioligand
# Assay type: cell membranes
Quick reference: Ki of the listed items.
Recorded Metric: Ki (µM)

Smiles Code: NC(=O)[C@@H]1CC(=O)NCCC[C@H](NC(=O)[C@@H](N)Cc2ccc(O)cc2)C(=O)N[C@@H](Cc2ccccc2)C(=O)N1
Recorded Metric: Ki
Measurement: 4.83

Smiles Code: NC(=O)[C@@H]1CC(=O)NCCC[C@@H](NC(=O)[C@@H](N)Cc2ccc(O)cc2)C(=O)N[C@@H](C2CCCCC2)C(=O)N1
Recorded Metric: Ki
Measurement: 0.445

---

# Tested On: Delta-type opioid receptor (Rattus norvegicus, UniProt P33533)
# Sequence (P33533 whole entry): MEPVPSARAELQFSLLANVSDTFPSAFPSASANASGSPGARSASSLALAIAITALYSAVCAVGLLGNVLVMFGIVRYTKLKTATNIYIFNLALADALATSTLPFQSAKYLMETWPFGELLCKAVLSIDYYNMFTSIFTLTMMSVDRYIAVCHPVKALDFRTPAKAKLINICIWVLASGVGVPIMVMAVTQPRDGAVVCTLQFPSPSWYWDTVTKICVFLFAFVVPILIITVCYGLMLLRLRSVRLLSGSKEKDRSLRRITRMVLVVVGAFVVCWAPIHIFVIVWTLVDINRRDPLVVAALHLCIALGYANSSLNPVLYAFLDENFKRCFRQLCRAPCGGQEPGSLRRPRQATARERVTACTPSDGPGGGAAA
# Assay Info: Inhibition of [3H]DSLET binding to rat brain membrane Opioid receptor delta 1
Bridge positions count the residues as written; N and C are the ends. Square brackets hold non-standard residues; d marks the D form. Peptide text beside a SMILES is read from it. Orn = NCCC[C@H](N)C(=O)O
Classify on Ki using small value = under 800 nM, mid value = from 800 nM up to 4000 nM, large value = 4000 nM and over

Compound: NC(=O)[C@@H]1CSSC[C@@H](NC(=O)[C@@H](N)Cc2ccc(O)cc2)C(=O)N[C@@H](Cc2ccccc2)C(=O)N1
Assigned Category: small value
//
Compound: NC(=O)[C@@H]1CCNC(=O)C[C@@H](NC(=O)[C@@H](N)Cc2ccc(O)cc2)C(=O)N[C@@H](Cc2ccccc2)C(=O)N1
Assigned Category: large value
//
Compound: NC(=O)[C@@H]1CC(=O)NCCC[C@@H](NC(=O)[C@@H](N)Cc2ccc(O)cc2)C(=O)N[C@@H](Cc2ccccc2)C(=O)N1
Assigned Category: mid value
//
Compound: NC(=O)[C@@H]1CC(=O)NCCC[C@@H](NC(=O)[C@@H](N)Cc2ccc(O)cc2)C(=O)N[C@@H](C2CCCCC2)C(=O)N1
Assigned Category: mid value
//
Compound: NC(=O)[C@@H]1CC(=O)NCCC[C@H](NC(=O)[C@@H](N)Cc2ccc(O)cc2)C(=O)N[C@@H](Cc2ccccc2)C(=O)N1
Assigned Category: large value
//
Compound: NC(=O)[C@@H]1CC(=O)NCCC[C@@H](NC(=O)[C@@H](N)Cc2ccc(O)cc2)C(=O)N[C@H](Cc2ccccc2)C(=O)N1
Assigned Category: large value
//
Compound: NC(=O)[C@@H]1CCCNC(=O)C[C@@H](NC(=O)[C@@H](N)Cc2ccc(O)cc2)C(=O)N[C@@H](Cc2ccccc2)C(=O)N1 (H-Y[dD]F[Orn]-NH2; lactam 2-4)
Assigned Category: mid value
//
Compound: CN1C(=O)[C@H](NC(=O)[C@@H](N)Cc2ccc(O)cc2)CCCNC(=O)C[C@@H](C(N)=O)NC(=O)[C@@H]1Cc1ccccc1
Assigned Category: large value
//
Compound: NC(=O)[C@@H]1CC(=O)NCCC[C@@H](NC(=O)[C@@H](N)Cc2ccc(O)cc2)C(=O)N[C@@H](Cc2ccc([N+](=O)[O-])cc2)C(=O)N1
Assigned Category: large value
//
Compound: NC(=O)[C@H]1CC(=O)NCCC[C@@H](NC(=O)[C@@H](N)Cc2ccc(O)cc2)C(=O)N[C@@H](Cc2ccccc2)C(=O)N1
Assigned Category: small value
//
Compound: NC(=O)[C@@H]1CC(=O)NCCC[C@@H](NC(=O)[C@@H](N)Cc2ccc(O)cc2)C(=O)N[C@@H](CCc2ccccc2)C(=O)N1
Assigned Category: mid value
